Could you please report measured PBM binding z-score for the items listed next?
Test system: RARg homodimer (NR concentration 270 nM)
method: PBM binding z-score (relative to random genomic background probes); higher = stronger binding; sequences stand for … in GC…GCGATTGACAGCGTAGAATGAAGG

sequence_input=CCTACTGGCCCAAAGGTCATTGATTCCAATGCTC property_name="PBM binding z-score" reading=4.36
sequence_input=CGAACTAGGTCAGAACAGGACAGTGAGGGATGAT property_name="PBM binding z-score" reading=3.18
sequence_input=CCTGCTAGGCCAATGGTCAGCTAAAGCAGCTCGC property_name="PBM binding z-score" reading=0.173
sequence_input=CAAACTAGGTCAAAGGTCAAAGTGGAGCCAACCA property_name="PBM binding z-score" reading=7.43
sequence_input=GCTACAGGGTCAAGGCCAGAGTACGCGTATTGAT property_name="PBM binding z-score" reading=5.17
sequence_input=TCATATAGGTAGATGCTAGGTGAAAGTCCGATCT property_name="PBM binding z-score" reading=0.207
sequence_input=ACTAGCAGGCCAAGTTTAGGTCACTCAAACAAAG property_name="PBM binding z-score" reading=2.44
sequence_input=TATACAGGGTCAAAGGCCAGAGGACGAATGTCGA property_name="PBM binding z-score" reading=5.44

For every item in the list below, what is its measured PBM binding z-score?
1. ATCTCTAGGTAAAGCTAGTTCAGTGAATGCAAAT
2. AGAATGAGGTTGCCAAAGATCAGGGAAACGCTTG

stdout:
0.23
0.336

For every item in the list below, what is its measured PBM binding z-score?
1. TCTAGCAGGCCAGGGGGTCACTCAAGAGGTACGG
2. ATCTCTAGGTAAAGATAGTTCGGTGAATGCAAAT
3. ACAGACAGGTGAGTGAAGGTAACACAGCTGGACG

stdout:
1. 4.08
2. 0.491
3. 0.789

* * *

Test system: PPARa:RXRa (NR concentration 270 nM, RXRa partner concentration 90 nM)
method: PBM binding z-score (relative to random genomic background probes); higher = stronger binding; sequences stand for … in GC…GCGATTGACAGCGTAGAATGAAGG
Class fulfilled: PBM binding z-score at least 5. Class not fulfilled: PBM binding z-score below 5.

// below: answered sequences
sequence_input=GATACACGGTCAGCTAGAGGCCAGAGTATGGAAA answer_label="not fulfilled"
sequence_input=ATCGAAAGGTCGTGAGGTGAGCATACAGAAAGGC answer_label="not fulfilled"
sequence_input=TAGCCTAGGACAGATCGGGCCAGTATACGCTATA answer_label="not fulfilled"

stdin: Could you tell me if the measured PBM binding z-score of ACAGACAGGTGAGTGACGGTAACTCAGCTGGACG reaches 5 or more?
stdout: not fulfilled

stdin: Could you tell me if the measured PBM binding z-score of CCGACTGGGGCAGAAAGGTTACGATACCATCCGG reaches 5 or more?
stdout: not fulfilled

* * *

Could you please report measured PBM binding z-score for the items listed next?
Tested on: PPARg:RXRa (NR concentration 180 nM, RXRa partner concentration 90 nM)
method: PBM binding z-score (relative to random genomic background probes); higher = stronger binding; sequences stand for … in GC…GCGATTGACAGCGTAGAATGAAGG
Answers are plain numbers.

sequence_input=CTCGAAAGGCCGTGCTCAGGTGAGTATACCAAAC target="PPARg:RXRa (NR concentration 180 nM, RXRa partner concentration 90 nM)" property_name="PBM binding z-score" reading=-0.381
sequence_input=CAAACTAGGTCACGAAAGGTCCAAGTCGAATGAC target="PPARg:RXRa (NR concentration 180 nM, RXRa partner concentration 90 nM)" property_name="PBM binding z-score" reading=8.99
sequence_input=CCTGCTATGTCATGGTCAGCTAATCTACAGTATG target="PPARg:RXRa (NR concentration 180 nM, RXRa partner concentration 90 nM)" property_name="PBM binding z-score" reading=0.0811

For every item in the list below, what is its measured PBM binding z-score?
1. TTACCAAGGTGAGCTAAGGTCGTTGATCCAACTC
2. AGTTAAAGTTCATCTAGGTAACGTAAGATATGCT
3. TCATATTGGTAAAAGGTGAAAGTCGGTGTGGTAA
4. ACTTACGGGGCAACGAGGTTATAGCACGCGTATA
5. CCGAGTGGGGCATAAGGTTACCATAAGCCAGCCC
6. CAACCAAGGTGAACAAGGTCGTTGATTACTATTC
7. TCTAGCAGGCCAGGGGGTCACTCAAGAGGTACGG

stdout:
[0.5, 4.77, 3.98, 1.64, 2.19, 1.33, 2.95]
